Type: in vivo
Conditions: human, plasma, po, 150 mg
recorded-endpoint: Cmax (µM)

>>> readout_number("CO[C@H]1/C=C/O[C@@]2(C)Oc3c(C)c(O)c4c(O)c(c(/C=N/N5CCN(C)CC5)c(O)c4c3C2=O)NC(=O)/C(C)=C\\C=C\\[C@H](C)[C@H](O)[C@@H](C)[C@@H](O)[C@@H](C)[C@H](OC(C)=O)[C@@H]1C")
4.78

---

Assay type: in vivo
Details: human, plasma, po, 150 mg
recorded-endpoint: AUC(0-t)

>>> result("CO[C@H]1/C=C/O[C@@]2(C)Oc3c(C)c(O)c4c(O)c(c(/C=N/N5CCN(C)CC5)c(O)c4c3C2=O)NC(=O)/C(C)=C\\C=C\\[C@H](C)[C@H](O)[C@@H](C)[C@@H](O)[C@@H](C)[C@H](OC(C)=O)[C@@H]1C [rifampicin]")
"19.8 µM·h"
